# assay overview: n-octanol–water partition coefficient
# Format: physicochemical
# test settings: n-octanol/water, 500 μM sample, 20 h at 20 °C, HPLC; mean ± SD (n = 3); read-out: Log Po/w (n-octanol–water partition coefficient) (converted)
observed property: logP at 20 h
Reply with the value as a number alone.

// known answers, use as guide
* CCCCCCCCCCCC(=O)Oc1cc(O)c2c(c1)OC(c1ccc(OC)c(O)c1)CC2=O (stereo not shown) [HTL, hesperetin laurate] | 7.28
* COc1ccc(C2CC(=O)c3c(O)cc(O[C@@H]4O[C@H](CO[C@@H]5O[C@@H](C)[C@H](O)[C@@H](O)[C@H]5O)[C@@H](O[C@H]5O[C@H](CO)[C@@H](O)[C@H](O)[C@H]5O)[C@H](O)[C@H]4O)cc3O2)cc1O (stereo partly shown) [HDG, hesperidin glucoside] | -3.45

Noted for COc1ccc([C@@H]2CC(=O)c3c(O)cc(O)cc3O2)cc1O [HT, hesperetin] : its logP at 20 h reads 2.59

The reported value for COc1ccc(C2CC(=O)c3c(O)cc(O[C@@H]4O[C@H](CO[C@@H]5O[C@@H](C)[C@H](O)[C@@H](O)[C@H]5O)[C@@H](O)[C@H](O)[C@H]4O)cc3O2)cc1O (stereo partly shown) [HD, hesperetin 7-rutinoside] in terms of logP at 20 h is 2.13

* * *

IC50 listing for selected compounds.
# assay overview: β-carotene bleaching assay
# test settings: β-carotene/linoleic acid emulsion, 50 °C, 2 h
Number only, in µM; omit the unit.

The following compounds have reported results that may help.
• COc1ccc(C2CC(=O)c3c(O)cc(O[C@@H]4O[C@H](CO[C@@H]5O[C@@H](C)[C@H](O)[C@@H](O)[C@H]5O)[C@@H](O[C@H]5O[C@H](CO)[C@@H](O)[C@H](O)[C@H]5O)[C@H](O)[C@H]4O)cc3O2)cc1O (stereo partly shown) [HDG, hesperidin glucoside] = 267
• COc1ccc([C@@H]2CC(=O)c3c(O)cc(O)cc3O2)cc1O = 110
• COc1ccc(C2CC(=O)c3c(O)cc(O[C@@H]4O[C@H](CO[C@@H]5O[C@@H](C)[C@H](O)[C@@H](O)[C@H]5O)[C@@H](O)[C@H](O)[C@H]4O)cc3O2)cc1O (stereo partly shown) [HD, hesperetin 7-rutinoside] = 261

Note to self: IC50 recorded for CCCCCCCCCCCC(=O)Oc1cc(O)c2c(c1)OC(c1ccc(OC)c(O)c1)CC2=O (stereo not shown) [HTL, hesperetin laurate] was 105
